- Test system: Parastagonospora nodorum
- assay.summary: Fungicidal activity against Phaeosphaeria nodorum inoculated in 24 hr compound-treated plant foliage assessed as disease control at 40 ppm measured after 7 days
- Format: functional
experimental.endpoint: Activity (%)
The response must be a number in % with no trailing unit.

• O=C(Nc1c(Cl)cccc1Cl)c1c(Cl)nc2n1CCS2(=O)=O = 0
• O=C(c1c(Cl)nc2n1CCS2(=O)=O)N1CCOCC1 = 23
• Cc1nc2n(c1C(=O)Nc1c(Cl)cccc1Cl)CCS2(=O)=O = 23

Let me know recorded Activity for CCNC(=O)c1c(Cl)nc2n1CCS2(=O)=O , thanks.
23

Let me know recorded Activity for O=C(Nc1c(Cl)cccc1Cl)c1c(-c2ccccc2)nc2n1CCS2(=O)=O , thanks.
23
